assay: Selectivity index, ratio of CC25 for African green monkey Vero cells to IC25 for Herpes simplex virus 1 KOS; format: toxicity, cell-based; conditions: read-out: Selectivity Index
So basically: is selectivity ratio under 1? Then Condition met. Not under? Then Condition not met.

COc1cccc(C2NC(=O)NC(C)=C2C(=O)Nc2ccccc2Cl)c1 (configuration not stated)    Condition not met
CC1=C(C(=O)Nc2ccccc2Cl)C(c2ccccc2Cl)NC(=O)N1 (configuration not stated)    Condition not met
CCOC(=O)C1=C(C)NC(=O)NC1c1ccccc1 (configuration not stated)    Condition not met
CC1=C(C(=O)Nc2ccccc2Cl)C(c2cccc(Br)c2)NC(=O)N1 (configuration not stated)    Condition not met
CC1=C(C(=O)OC(C)C)C(c2cccs2)NC(S)=N1 (configuration not stated)    Condition met
CC1=C(C(=O)Nc2ccccc2Cl)C(C(C)c2ccccc2)NC(=O)N1 (configuration not stated)    Condition met
CC1=C(C(=O)Oc2ccccc2)C(c2ccccc2)NC(=S)N1 (configuration not stated)    Condition not met
CC1=C(C(=O)Nc2cccnc2)C(c2cccs2)NC(=O)N1 (configuration not stated)    Condition met
CCOC(=O)C1=C(C)NC(=S)NC1c1ccc(Br)cc1 (configuration not stated)    Condition met
CC1=C(C(=O)Nc2ccc(Br)cc2)C(c2ccccc2)NC(=O)N1 (configuration not stated)    Condition not met

Bench note: check whether CC1=C(C(=O)Nc2ccc(Cl)cc2)C(c2cnc(CS)n2Nc2ccccc2)NC(=O)N1 (configuration not stated) shows selectivity ratio below 1
Condition not met

# TODO verify selectivity ratio < 1 strictly for this molecule: CC1=C(C(=O)Nc2ccccc2Cl)C(c2ccc(C)cc2)NC(=O)N1 (configuration not stated)
Condition not met

Lab note: selectivity ratio threshold 1. Does this molecule come in strictly under it? CC1=C(C(=O)OCC(C)C)C(c2cccs2)NC(S)=N1 (configuration not stated)
Condition not met

Bench note: check whether CC1=C(C(=O)Oc2ccccc2)C(c2ccccc2)NC(=O)N1 (configuration not stated) shows selectivity ratio below 1
Condition not met

Find out if reported selectivity ratio for CCOC(=O)C1=C(C)N=C(S)NC1c1cccs1 (configuration not stated) is less than 1
Condition not met

Consider COC(=O)C1=C(C)NC(=O)NC1c1ccc(Br)cc1 (configuration not stated) . Does its selectivity ratio lie strictly below 1?
Condition not met

Find out if reported selectivity ratio for CC1=C(C(=O)Nc2ccc(F)cc2)C(c2ccccc2)NC(=O)N1 (configuration not stated) is less than 1
Condition not met

Determine whether this molecule shows selectivity ratio lower than 1 (ties excluded): CC1=C(C(=O)Nc2ccccc2Cl)C(c2ccc(Br)cc2)NC(=O)N1 (configuration not stated)
Condition not met

Hi there! Is selectivity ratio for CC1=C(C(=O)Nc2ccccc2Cl)C(c2cnc(CS)n2NCc2ccccc2)NC(=O)N1 (configuration not stated) below 1, do you know?
Condition met

Field: below-cutoff. Rule: recorded selectivity ratio strictly less than 1. Subject: CCOC(=O)C1=C(C)N(C)C(=O)NC1c1ccc(F)cc1 (configuration not stated)
Condition not met

----------
tested on: Vero; experiment: Cytotoxicity against Chlorocebus aethiops (African green monkey) Vero cells after 72 hr by XTT assay; assay type: cell-based; details: chlorocebus sabaeus, vero, 72 h
Catalogue of compounds with associated CC25
Express the result in µM but write the number alone.

Previously resolved entries follow.
CC1=C(C(=O)Nc2ccccc2Cl)C(c2ccccc2Br)NC(=O)N1 (stereo unspecified)    58.8
CC1=C(C(=O)Nc2ccccc2Cl)C(c2cccs2)NC(=O)N1 (stereo unspecified)    98.9
CCOC(=O)C1=C(C)NC(=O)NC1c1ccc(Br)cc1 (stereo unspecified)    67.5

Which measured CC25 belongs to CC1=C(C(=O)OC(C)(C)C)C(c2cccs2)NC(=O)N1 (stereo unspecified) , tested on Vero?
76.7

----------
Listing of entries alongside the reported selectivity ratio.
assay: Therapeutic index, ratio of CC50 for African green monkey Vero cells to IC50 for Herpes simplex virus 1 KOS; assay type: cell-based; settings: read-out: Ratio CC50/IC50

Example results:
CC1=C(C(=O)OC(C)(C)C)C(c2cccs2)NC(=O)N1 (stereo not given)    < 1
CCOC(=O)C1=C(C)NC(=O)NC1c1ccccc1 (stereo not given)    1
CC1=C(C(=O)Nc2ccccc2Cl)C(c2ccc([N+](=O)[O-])cc2)NC(=O)N1 (stereo not given)    > 1.2

Please examine the following record next.
Give the measured selectivity ratio of COC(=O)C1=C(C)NC(=S)NC1c1ccc(Br)cc1 (stereo not given) .
1.22

----------
system: Vero; test: Cytotoxicity against Chlorocebus aethiops (African green monkey) Vero cells after 72 hr by XTT assay; assay type: cell-based; settings: chlorocebus sabaeus, vero, 72 h
Value kind: CC25 (µM)
Supply the numeric figure in µM, leaving out any unit text.

Worked examples, 6 compounds total:
CCOC(=O)C1=C(C)NC(=S)NC1c1ccc(Br)cc1 (stereo unspecified)    9.3
CC1=C(C(=O)OCC(C)C)C(c2cccs2)NC(S)=N1 (stereo unspecified)    18.4
CC1=C(C(=O)Nc2ccc(Cl)cc2)C(c2cnc(CS)n2Nc2ccccc2)NC(=O)N1 (stereo unspecified)    53.9
CC1=C(C(=O)Nc2ccccc2Cl)C(C(C)c2ccccc2)NC(=O)N1 (stereo unspecified)    1.7
CC1=C(C(=O)Nc2ccc(Br)cc2)C(c2ccccc2)NC(=O)N1 (stereo unspecified)    71.3
CC1=C(C(=O)Nc2ccccc2Cl)C(c2cccc(Br)c2)NC(=O)N1 (stereo unspecified)    54.7

Consider now this further compound.
// lookup CC25 for CC1=C(C(=O)Oc2ccccc2)C(c2ccccc2)NC(=O)N1 (stereo unspecified)
98

----------
In this section, each of the compounds is paired with its reported selectivity ratio.
test: Therapeutic index, ratio of CC50 for African green monkey Vero cells to IC50 for Herpes simplex virus 1 KOS; format: cell-based; details: read-out: Ratio CC50/IC50

# annotated cases, reported selectivity ratio shown
CC1=C(C(=O)Nc2ccccc2Cl)C(c2ccccc2Cl)NC(=O)N1 (stereo not drawn)    > 1.4
CC1=C(C(=O)Oc2ccccc2)C(c2ccccc2)NC(=S)N1 (stereo not drawn)    > 1
COC(=O)C1=C(C)N(C)C(=O)NC1c1ccc(F)cc1 (stereo not drawn)    1
CCCC1NC(=O)NC(C)=C1C(=O)OCC (stereo not drawn)    1

# selectivity ratio lookup, item CC1=C(C(=O)Nc2ccc(F)cc2)C(c2ccccc2)NC(=O)N1 (stereo not drawn)
> 1

Which selectivity ratio reading was recorded for the compound CC1=C(C(=O)Nc2cccc(Cl)c2)C(c2cccs2)NC(=O)N1 (stereo not drawn) ?
< 1

For COc1cccc(C2NC(=O)NC(C)=C2C(=O)Nc2ccccc2Cl)c1 (stereo not drawn) , what is its reported selectivity ratio?
> 1

May I ask what selectivity ratio has been recorded for CC1=C(C(=O)Nc2ccccc2Cl)C(c2cccc(Br)c2)NC(=O)N1 (stereo not drawn) ?
> 1

Which selectivity ratio value is on record for CC1=C(C(=O)OCC(C)C)C(c2cccs2)NC(S)=N1 (stereo not drawn) ?
48.6

Would you mind telling me what selectivity ratio value was observed for CC1=C(C(=O)Nc2ccccc2Cl)C(c2ccc(Cl)cc2)NC(=O)N1 (stereo not drawn) ?
> 6.6

Recorded selectivity ratio for CC1=C(C(=O)Nc2ccccn2)C(c2cccs2)NC(=O)N1 (stereo not drawn) , please?
> 1

So what does the record say about selectivity ratio for CC1=C(C(=O)Nc2cccnc2)C(c2cccs2)NC(=O)N1 (stereo not drawn) ?
< 1

Dear colleague, I am looking for the recorded selectivity ratio of the following compound: CC1=C(C(=O)Nc2ccccc2Cl)C(c2cccs2)NC(=O)N1 (stereo not drawn)
> 1.2

Give the measured selectivity ratio of CC1=C(C(=O)Nc2ccccc2Cl)C(c2ccccc2Cl)NC(=S)N1 (stereo not drawn) .
> 1

Suppose we examine the compound CC1=C(C(=O)Oc2ccccc2)C(c2ccccc2)NC(=O)N1 (stereo not drawn) ; what selectivity ratio value has been reported?
> 1.1

Which selectivity ratio reading was recorded for the compound CC1=C(C(=O)Nc2ccccc2Cl)C(c2cnc(CS)n2Nc2ccccc2)NC(=O)N1 (stereo not drawn) ?
< 1

selectivity ratio for CC1=C(C(=O)Nc2ccccc2Cl)C(c2ccc(Br)cc2)NC(=O)N1 (stereo not drawn) ?
> 3

# selectivity ratio lookup, item CC1=C(C(=O)Nc2ccc(Br)cc2)C(c2ccccc2)NC(=O)N1 (stereo not drawn)
> 2.3

Return reported selectivity ratio; argument: CC1=C(C(=O)OC(C)C)C(c2cccs2)NC(S)=N1 (stereo not drawn)
1.9

Return reported selectivity ratio; argument: CC1=C(C(=O)Nc2ccc(Cl)cc2)C(c2cccs2)NC(=O)N1 (stereo not drawn)
> 1.6

# lookup: selectivity ratio of CCOC(=O)C1=C(C)NC(=S)NC1c1ccc(Br)cc1 (stereo not drawn)
0.31

Param item = CC1=C(C(=O)Nc2ccccc2Cl)C(C(C)c2ccccc2)NC(=O)N1 (stereo not drawn) ; retrieve measured selectivity ratio.
< 1

Looking for the measured selectivity ratio of CCOC(=O)C1=C(C)NC(=O)NC1c1ccc(F)cc1 (stereo not drawn) , can you help?
1

----------
CC50 at 72 h for assorted compounds
assay: Cytotoxicity against Chlorocebus aethiops (African green monkey) Vero cells after 72 hr by XTT assay; format: cell-based; conditions: chlorocebus sabaeus, Vero cells

Some solved entries appear below for comparison.
COc1cccc(C2NC(=O)NC(C)=C2C(=O)Nc2ccccc2Cl)c1 (stereo not given)    > 100 µM
CC1=C(C(=O)Nc2cccc(Cl)c2)C(c2cnc(CS)n2Nc2ccccc2)NC(=O)N1 (stereo not given)    98.6 µM
CC1=C(C(=O)Nc2cccc(Cl)c2)C(c2cccs2)NC(=O)N1 (stereo not given)    > 100 µM

Which value of CC50 at 72 h has been reported for CC1=C(C(=O)OCC(C)C)C(c2cccs2)NC(S)=N1 (stereo not given) in the records?
87.5 µM

Data request, read-out CC50 at 72 h, for CC1=C(C(=O)OC(C)C)C(c2cccs2)NC(S)=N1 (stereo not given)
53.9 µM

I would be grateful if you could share the reported CC50 at 72 h for CC1=C(C(=O)Nc2ccc(F)cc2)C(c2ccccc2)NC(=O)N1 (stereo not given) .
> 100 µM

Please report the recorded CC50 at 72 h for CC1=C(C(=O)Nc2cccnc2)C(c2cccs2)NC(=O)N1 (stereo not given) .
> 100 µM

Looking for the measured CC50 at 72 h of CC1=C(C(=O)Nc2ccc(Cl)cc2)C(c2cccs2)NC(=O)N1 (stereo not given) , can you help?
> 100 µM
